tested on: HT29 colon; test: NCI-60 one-dose screen, 48 h; settings: 10 µM unless noted
About 83,000 compounds went through this panel and 20% of them were active in at least one assay; those are over-represented in the sample as a whole. Activity calls are given as the source filed them. Rule for the calls: active = growth percent below 10; inactive = the rest.
Result category, one only: 1 (yes) = active, 0 (no) = inactive

| smiles notation | measured on | assigned category |
| --- | --- | --- |
| COc1ccc(-c2ccc3ncc4c(c3c2)n(-c2ccc(N3CCNCC3)c(C(F)(F)F)c2)c(=O)n4C)cn1 | HT29 colon | 1 (yes) |
| CO[C@H]1C[C@@H]2CC[C@@H](C)[C@@](O)(O2)C(=O)C(=O)N2CCCC[C@H]2C(=O)O[C@H]([C@H](C)C[C@@H]2CC[C@@H](O)[C@H](OC)C2)CC(=O)[C@H](C)/C=C(\C)[C@@H](O)[C@@H](OC)C(=O)[C@H](C)C[C@H](C)\C=C/C=C/C=C/1C | HT29 colon | 0 (no) |
| CCn1c(-c2nonc2N)nc2c(C#CC(C)(C)O)ncc(OC[C@H]3CCCNC3)c21 | HT29 colon | 0 (no) |
| O=C(c1ccc(/C=C/c2n[nH]c3ccccc23)cc1)N1CCNCC1 | HT29 colon | 0 (no) |

Let us examine a further case.
Exercise: Test call for this compound, please: "CCCCN1C(=O)c2cccc3c(-c4ccc5c(c4)ncn5C4CCCCC4)ccc(c23)C1=O"
Key: 0 (no)

Origin of measurements: PubChem BioAssay (NCI)
